target: T1, human TSLP recombinant protein (human, UniProt Q969D9 29-159, biotinylated in the blocking and cell-binding assays (sites not given)); experiment: SPR BIAcore T200, antibody captured on Protein A, human TSLP injected
T1 construct: also called biotinylated human TSLP protein
assay metric: koff (s⁻¹)
Respond with the bare value in s⁻¹.

// sample Ab26 (antibody, V domains shown, Humanized; also called h39G5VHv10/h71G4VKv1; h39G5VHv10/h71G4VKv1 hIgG1) VH: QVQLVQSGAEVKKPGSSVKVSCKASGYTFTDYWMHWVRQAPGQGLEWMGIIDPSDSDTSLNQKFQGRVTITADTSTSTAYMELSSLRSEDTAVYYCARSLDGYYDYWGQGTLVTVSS VL: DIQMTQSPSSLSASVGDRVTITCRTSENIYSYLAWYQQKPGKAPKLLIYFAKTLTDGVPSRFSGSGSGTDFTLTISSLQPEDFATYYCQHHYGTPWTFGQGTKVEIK , its koff was 2.79e-06
